TEST NAME: Steroidomic (GC-MS/MS) analysis of hippocampal tissue after PA-G administration
CONDITIONS: P25; 20 min after PA-G i.p., 1 mg/kg in CDX
Please provide measured fold increase in the concentration in the rat hippocampus above the basal levels for the entries that follow.
Write the value in x as a bare number.

In: Entry CC(=O)[C@H]1CCC2C3CC[C@@H]4CC(=O)CC[C@]4(C)C3CC[C@@]21C (stereo partly drawn) [5β-Dihydroprogesterone, 5β-dihydroprogesterone] has what fold increase in the concentration in the rat hippocampus above the basal levels?
Out: 1.9

In: Item under review: CC(=O)[C@H]1CCC2C3CC[C@@H]4C[C@H](OC(=O)[C@@H](N)CCC(=O)O)CC[C@]4(C)C3CC[C@@]21C (stereo partly drawn) . Reported fold increase in the concentration in the rat hippocampus above the basal levels?
Out: 9.76

In: Which fold increase in the concentration in the rat hippocampus above the basal levels is reported for this molecule? C[C@H](O)[C@@]1(O)CCC2C3CC[C@@H]4C[C@H](O)CC[C@]4(C)C3CC[C@@]21C (stereo partly drawn) [3α,17α,20α-Trihydroxy-5β-pregnane]
Out: 2.39

* * *

TEST NAME: Steroidomic (GC-MS/MS) analysis of hippocampal tissue after PA-G administration
CONDITIONS: P25; 20 min after PA-G i.p., 1 mg/kg in CDX
Use satisfied when the recorded percentage of total significantly increased (5β) steroids in the rat hippocampus is no lower than 9%; use not satisfied when it is lower.

In: Kindly determine if percentage of total significantly increased (5β) steroids in the rat hippocampus recorded for CC(=O)[C@H]1CC[C@H]2[C@@H]3CC[C@@H]4C[C@H](O)CC[C@]4(C)[C@H]3CC[C@]12C [PA, pregnanolone] is above or exactly 9%.
Out: satisfied

In: Check this compound for percentage of total significantly increased (5β) steroids in the rat hippocampus at or above 9%: CC(=O)[C@@]1(O)CC[C@H]2[C@@H]3CC[C@@H]4C[C@H](OC(=O)[C@@H](N)CCC(=O)O)CC[C@]4(C)[C@H]3CC[C@@]21C [17-Hydroxypregnanolone glutamate]
Out: not satisfied

In: # bool: percentage of total significantly increased (5β) steroids in the rat hippocampus of C[C@]12CC[C@@H](O)C[C@H]1CC[C@@H]1[C@@H]2CC[C@]2(C)C(=O)CC[C@@H]12 [Etiocholanolone (ETIO), etiocholanolone] >= 9%
Out: not satisfied

In: Test whether the compound CC(=O)[C@@]1(O)CCC2C3CC[C@@H]4C[C@H](O)CC[C@]4(C)C3CC[C@@]21C (stereo partly shown) [17-OH-PA, 17-hydroxy-pregnanolone] records percentage of total significantly increased (5β) steroids in the rat hippocampus of 9% or higher.
Out: satisfied

In: Has C[C@H](O)[C@H]1CCC2C3CC[C@@H]4C[C@H](O)CC[C@]4(C)C3CC[C@@]21C (stereo partly drawn) [3α,20α-Dihydroxy-5β-pregnane] a recorded percentage of total significantly increased (5β) steroids in the rat hippocampus greater than or equal to 9%?
Out: not satisfied

In: State whether the measured percentage of total significantly increased (5β) steroids in the rat hippocampus reaches 9%, counting equality as reaching it, for C[C@H](O)[C@H]1CC[C@H]2[C@@H]3CC[C@@H]4C[C@H](OC(=O)[C@@H](N)CCC(=O)O)CC[C@]4(C)[C@H]3CC[C@]12C [(20S)-Hydroxypregnanolone glutamate]
Out: not satisfied

In: Is the recorded value of percentage of total significantly increased (5β) steroids in the rat hippocampus equal to or greater than 9% for this compound? CC(=O)[C@H]1CCC2C3CC[C@@H]4CC(=O)CC[C@]4(C)C3CC[C@@]21C (stereo partly drawn) [5β-Dihydroprogesterone, 5β-dihydroprogesterone]
Out: not satisfied

In: State whether the measured percentage of total significantly increased (5β) steroids in the rat hippocampus reaches 9%, counting equality as reaching it, for CC(=O)[C@H]1CCC2C3CC[C@@H]4C[C@H](OC(=O)[C@@H](N)CCC(=O)O)CC[C@]4(C)C3CC[C@@]21C (stereo partly shown) [PA-G]
Out: satisfied

In: Form field: percentage of total significantly increased (5β) steroids in the rat hippocampus at least 9%? Entry: C[C@H](O)[C@@]1(O)CCC2C3CC[C@@H]4C[C@H](O)CC[C@]4(C)C3CC[C@@]21C (stereo partly drawn) [3α,17α,20α-Trihydroxy-5β-pregnane]
Out: not satisfied

* * *

TEST NAME: Steroidomic (GC-MS/MS) analysis of hippocampal tissue after PA-G administration
CONDITIONS: P25; 20 min after PA-G i.p., 1 mg/kg in CDX
Assign labels as follows, please: yes (1) for fold increase in the concentration in the rat hippocampus above the basal levels below 10 x; no (0) for fold increase in the concentration in the rat hippocampus above the basal levels equal to or exceeding 10 x.

In: Given the entry C[C@H](O)[C@H]1CCC2C3CC[C@@H]4C[C@H](O)CC[C@]4(C)C3CC[C@@]21C (stereo partly drawn) [3α,20α-Dihydroxy-5β-pregnane] , would its reported fold increase in the concentration in the rat hippocampus above the basal levels be below 10 x?
Out: no (0)

In: fold increase in the concentration in the rat hippocampus above the basal levels under 10 x? Item: C[C@]12CC[C@@H](O)C[C@H]1CC[C@@H]1[C@@H]2[C@@H](O)C[C@]2(C)[C@@H](C(=O)CO)CC[C@@H]12 [3α,5β-THCC, 3α,5β-tetrahydrocorticosterone]
Out: yes (1)

In: Could you please tell me whether fold increase in the concentration in the rat hippocampus above the basal levels recorded for CC(=O)[C@@]1(O)CCC2C3CC[C@@H]4C[C@H](O)CC[C@]4(C)C3CC[C@@]21C (stereo partly drawn) [17-OH-PA, 17-hydroxy-pregnanolone] is less than 10 x?
Out: no (0)

In: Is the reported fold increase in the concentration in the rat hippocampus above the basal levels for "CC(=O)[C@H]1CC[C@H]2[C@@H]3CC[C@@H]4C[C@H](O)CC[C@]4(C)[C@H]3CC[C@]12C" strictly below 10 x?
Out: no (0)

In: Is fold increase in the concentration in the rat hippocampus above the basal levels strictly under 10 x for the entry CC(=O)[C@@]1(O)CC[C@H]2[C@@H]3CC[C@@H]4C[C@H](OC(=O)[C@@H](N)CCC(=O)O)CC[C@]4(C)[C@H]3CC[C@@]21C [17-Hydroxypregnanolone glutamate] ?
Out: no (0)

* * *

TEST NAME: Steroidomic (GC-MS/MS) analysis of hippocampal tissue after PA-G administration;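 also: hippocampal steroids quantified by GC-MS/MS, covering free and conjugated forms after hydrolysis, compared against intact rats and rats injected with CDX vehicle alone, five animals per group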
CONDITIONS: P12; 20 min after PA-G i.p., 1 mg/kg in CDX
Is fold increase in the concentration in the rat hippocampus above the basal levels at least 20 x? Then condition met. If not, condition not met.

In: Is the recorded value of fold increase in the concentration in the rat hippocampus above the basal levels equal to or greater than 20 x for this compound? C[C@H](O)[C@H]1CC[C@H]2[C@@H]3CC[C@@H]4C[C@H](OC(=O)[C@@H](N)CCC(=O)O)CC[C@]4(C)[C@H]3CC[C@]12C [(20S)-Hydroxypregnanolone glutamate]
Out: condition met

In: Evaluate C[C@H](O)[C@H]1CCC2C3CC[C@@H]4C[C@H](O)CC[C@]4(C)C3CC[C@@]21C (stereo partly drawn) [3α,20α-Dihydroxy-5β-pregnane] : fold increase in the concentration in the rat hippocampus above the basal levels at minimum 20 x?
Out: condition met

In: Threshold query (fold increase in the concentration in the rat hippocampus above the basal levels >= 20 x) on CC(=O)[C@H]1CCC2C3CC[C@@H]4CC(=O)CC[C@]4(C)C3CC[C@@]21C (stereo partly drawn) [5β-Dihydroprogesterone, 5β-dihydroprogesterone]
Out: condition not met

In: Exam item: decide whether the reported fold increase in the concentration in the rat hippocampus above the basal levels for CC(=O)[C@@]1(O)CCC2C3CC[C@@H]4C[C@H](O)CC[C@]4(C)C3CC[C@@]21C (stereo partly drawn) [17-OH-PA, 17-hydroxy-pregnanolone] is at least 20 x.
Out: condition met

In: Please indicate if the recorded fold increase in the concentration in the rat hippocampus above the basal levels for C[C@]12CC[C@@H](O)C[C@H]1CC[C@@H]1[C@@H]2[C@@H](O)C[C@]2(C)[C@@H](C(=O)CO)CC[C@@H]12 [3α,5β-THCC, 3α,5β-tetrahydrocorticosterone] meets or exceeds 20 x.
Out: condition not met

In: Determine whether this compound has fold increase in the concentration in the rat hippocampus above the basal levels no lower than 20 x: C[C@H](O)[C@@]1(O)CCC2C3CC[C@@H]4C[C@H](O)CC[C@]4(C)C3CC[C@@]21C (stereo partly drawn) [3α,17α,20α-Trihydroxy-5β-pregnane]
Out: condition not met
